# method-description: Toxicity in ip dose mouse assessed as mortality
# Assay type: organism-based
# study-conditions: in vivo
measured-endpoint: LD50 (µmol/kg)

[[record]]
molecule = "Cc1ccccc1-n1c(C)nc2cc(/N=C/c3ccc(F)cc3)ccc2c1=O"
value_reported = 1710

[[record]]
molecule = "CCCC(CCC)C(=O)[O-].[Na+] [VALPROATE SODIUM]"
value_reported = 3000

[[record]]
molecule = "Cc1ccccc1-n1c(C)nc2ccccc2c1=O"
value_reported = 2000

[[record]]
molecule = "Cc1ccccc1-n1c(C)nc2cc(N3C(=O)CSC3c3ccccc3)ccc2c1=O (stereo not drawn)"
value_reported = 1500

[[record]]
molecule = "Cc1ccccc1-n1c(C)nc2cc(N3C(=O)CSC3c3ccc(Cl)cc3)ccc2c1=O (stereo not drawn)"
value_reported = 1040

[[record]]
molecule = "Cc1ccccc1-n1c(C)nc2cc(N3C(=O)CSC3c3ccc(F)cc3)ccc2c1=O (stereo not drawn)"
value_reported = 1020

[[record]]
molecule = "CCOC(=O)Nc1ccc2c(=O)n(-c3ccccc3C)c(C)nc2c1"
value_reported = 1930

[[record]]
molecule = "Cc1ccccc1-n1c(C)nc2cc(/N=C/c3ccc(Cl)cc3)ccc2c1=O"
value_reported = 1810

